assay.system: UniProt:P08482
test.method.notes: Compound was tested for percent inhibition against displacement of [3H]pirenzepine from rat cortex membrane expressing muscarinic M1 receptor at 10^-6 M
# inhibition >= 2% gives class 1, anything below gives class 0

COC(=O)CN1C(=O)OC2(CCN(C)CC2)C1=O    class 1
CN1CCC2(CC1)OC(=O)N(CCN1CCOCC1)C2=O    class 1
CN1CCC2(CC1)OC(=O)NC2=O    class 0
CCN1C(=O)OC2(CCN(CCCC(=O)OC)CC2)C1=O    class 0
CN1CCC2(CC1)OC(=S)NC2=O    class 0

Please check the record CN1CCC2(CC1)OC(=O)N(CC(N)=O)C2=O and state if its inhibition is at or above 2%.
class 1

One more compound: CCN1C(=O)OC2(CCN(CC#CCOC(=O)Nc3cccc(Cl)c3)CC2)C1=O
class 0

---

assay.system: Muscarinic acetylcholine receptor M2 (Rattus norvegicus, UniProt P10980)
Sequence (P10980 whole entry): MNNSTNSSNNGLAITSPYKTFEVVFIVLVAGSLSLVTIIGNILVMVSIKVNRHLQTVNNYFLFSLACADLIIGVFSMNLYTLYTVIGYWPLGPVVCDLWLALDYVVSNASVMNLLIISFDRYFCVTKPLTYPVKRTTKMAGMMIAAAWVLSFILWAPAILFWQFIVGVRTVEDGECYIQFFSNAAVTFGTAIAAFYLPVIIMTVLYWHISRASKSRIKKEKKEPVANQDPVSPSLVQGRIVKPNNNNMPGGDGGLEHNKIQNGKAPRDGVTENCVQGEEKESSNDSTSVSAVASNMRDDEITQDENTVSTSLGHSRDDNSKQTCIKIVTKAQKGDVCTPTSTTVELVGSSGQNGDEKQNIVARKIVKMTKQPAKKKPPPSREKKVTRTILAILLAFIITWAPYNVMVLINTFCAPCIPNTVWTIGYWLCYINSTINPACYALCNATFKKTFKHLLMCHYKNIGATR
test.method.notes: Compound tested in vitro for displacement of [3H]quinuclidinyl benzilate from rat cerebellum membrane expressing muscarinic M2 receptor
Assay type: tissue-based
reported.metric: pKi
One number for each entry, as −log10 of the molar value.

CN1CCC2(CC1)OC(=S)N(C(C)(C)C)C2=O.Cl    5.68

Please give pKi for each item listed below.
1. CCN1C(=O)C2(CCN(C)CC2)OC1=S
2. Br.CCN1C(=O)CC2(CCN(C)CC2)C1=O

1: 5.37; 2: 6.01

---

test.method.notes: Minimum dose required for subcutaneous administration to improve scopolamine-induced impairment of passive avoidance task in mouse(anti-amnesic effect)
reported.metric: MED (mg/kg)
Answers are plain numbers, in mg/kg.

CN1CCC2(CC1)OC(=S)NC2=O    30
Br.CCN1C(=O)CC2(CCN(C)CC2)C1=O    0.1
CCN1C(=O)OC2(CCNCC2)C1=O.Cl    0.3

Please give MED for each item listed below.
1. CCN1C(=O)OC2(CCN(CCCC(=O)OC)CC2)C1=O
2. CN1CCC2(CC1)OC(=O)N(c1cccc(Cl)c1)C2=O
3. CCN1C(=O)OC2(CCN(C)CC2)C1=O.Cl

1. 30
2. 0.3
3. 0.3

---

assay.system: UniProt:P08482
Sequence (P08482 whole entry): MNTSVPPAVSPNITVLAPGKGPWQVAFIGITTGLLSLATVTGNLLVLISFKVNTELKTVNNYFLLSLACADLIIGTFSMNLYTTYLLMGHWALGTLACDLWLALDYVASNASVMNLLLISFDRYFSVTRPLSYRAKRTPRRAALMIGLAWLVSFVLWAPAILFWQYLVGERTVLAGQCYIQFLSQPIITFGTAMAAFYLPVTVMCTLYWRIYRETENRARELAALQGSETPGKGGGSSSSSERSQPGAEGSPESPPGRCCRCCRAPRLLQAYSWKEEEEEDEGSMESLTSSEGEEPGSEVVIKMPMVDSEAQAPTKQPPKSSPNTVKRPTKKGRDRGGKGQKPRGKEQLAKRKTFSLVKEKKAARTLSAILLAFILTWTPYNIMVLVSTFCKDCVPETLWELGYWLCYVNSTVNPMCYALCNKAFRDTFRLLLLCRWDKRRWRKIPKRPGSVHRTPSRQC
reported.metric: Ki (µM)
Answers are plain numbers, in µM.

Examples with their reported Ki follow.
CN1CCC2(CC1)OC(=S)N(C(C)(C)C)C2=O.Cl    0.21
CCN1C(=O)OC2(CCNCC2)C1=O.Cl    7.8
CN1CCC2(CC1)OC(=O)N(C)C2=O    16
Br.CCN1C(=O)CC2(CCN(C)CC2)C1=O    0.46
C=CCN1C(=O)OC2(CCN(C)CC2)C1=O    5.1
COC(=O)CCCN1C(=O)OC2(CCN(C)CC2)C1=O    6.4
CCN1C(=O)C2(CCN(C)CC2)OC1=S    0.89
CN1CCC2(CC1)OC(=O)N(c1cccc(Cl)c1)C2=O    12

Let us move to another entry and its Ki.
For the compound shown here, CN1CCC2(CC1)OC(=S)N(c1ccccc1)C2=O , give the reported Ki.
4

---

assay.system: Muscarinic acetylcholine receptor M2 (Rattus norvegicus, UniProt P10980)
test.method.notes: Tested against muscarinic M2 receptor by displacement of [3H]quinuclidinyl benzilate from rat cerebellum membrane
Assay type: tissue-based
reported.metric: Ki (µM)
Answers are plain numbers, in µM.

For the molecule shown here, CCN1C(=O)OC2(CCN(C)CC2)C1=O.Cl , give the reported Ki.
7.8

---

assay.system: Muscarinic acetylcholine receptor M1 (Rattus norvegicus)
Sequence (P08482 whole entry): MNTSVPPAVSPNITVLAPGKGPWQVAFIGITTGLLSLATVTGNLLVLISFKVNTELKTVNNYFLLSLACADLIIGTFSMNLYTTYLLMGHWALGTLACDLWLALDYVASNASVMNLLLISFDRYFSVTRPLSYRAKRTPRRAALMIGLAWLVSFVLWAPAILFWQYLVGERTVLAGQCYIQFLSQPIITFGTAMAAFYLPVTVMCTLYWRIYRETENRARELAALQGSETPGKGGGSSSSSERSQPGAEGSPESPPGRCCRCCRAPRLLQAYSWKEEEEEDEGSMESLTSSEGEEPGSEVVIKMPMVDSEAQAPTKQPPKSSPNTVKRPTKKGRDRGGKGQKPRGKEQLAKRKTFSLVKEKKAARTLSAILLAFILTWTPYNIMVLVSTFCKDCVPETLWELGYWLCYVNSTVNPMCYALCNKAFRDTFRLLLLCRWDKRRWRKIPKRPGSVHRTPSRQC
Answer each item with its documented Ki.

Please give Ki for each item listed below.
1. CCN1C(=O)OC2(CCCN(C)C2)C1=O (stereo not drawn)
2. CN1CCC2(CC1)OC(=O)NC2=O
3. CN1CCC2(CC1)OC(=S)NC2=O

1: > 10 µM; 2: > 10 µM; 3: > 10 µM

Please give Ki for each item listed below.
1. CN1CCC2(CC1)OC(=O)N(CC(N)=O)C2=O
2. CCN1C(=O)OC2(CCN(CC#CCOC(=O)Nc3cccc(Cl)c3)CC2)C1=O
3. CCN1C(=O)OC2(CCN(C)C2)C1=O (stereo not drawn)
4. CN1CCC2(CC1)OC(=O)N(CCN1CCOCC1)C2=O
5. COC(=O)CN1C(=O)OC2(CCN(C)CC2)C1=O

1: > 10 µM; 2: > 10 µM; 3: > 10 µM; 4: > 10 µM; 5: > 10 µM
